Test protocol: NCI Yeast Anticancer Drug Screen. Data for the mec2-1 strain (AID 157)
Experimental parameters: S. cerevisiae mec2-1 strain, at 50.0 µM (retest, dose inferred, filed as 5.0)
This is part of a sample that, as a whole, favours compounds with a hit. Of some 79,000 tested, about 15% had one in any assay. Calls of active or inactive are those of the source. Cut-off read from the data, not from the text of the source: active = growth inhibition above about 70%; inactive = the rest.
Pick from active, inactive when you respond.

Kindly provide the recorded test outcome for the following compound: O=C1c2ccccc2-c2ccc(N3C(=O)C4CCCCC4C3=O)cc21 (stereo unspecified) active

Please share the test call associated with CCC[CH2][Sn]1([CH2]CCC)[O]CC([CH2][Sn]([c]2ccccc2)([c]2ccccc2)[c]2ccccc2)[O]1 (stereo unspecified) . active

Look up the recorded call for `CC(=O)Oc1ccc(C23CC4CC(CC(C4)C2)C3)cc1` in this test. active

Would you mind telling me which call this test gave `CCCCC(CCCC)=NNC(=S)SC` ? inactive

// param item: `Clc1ccc(/C=N\Nc2c3ccccc3nc3ccccc23)cc1Cl` ; yields the recorded call inactive

Now for another entry.
State the result this test recorded for CN1C(=O)OC(C)(c2ccccc2)C1=O (stereo unspecified) . inactive

###

Test protocol: NCI Yeast Anticancer Drug Screen. Data for the mlh1 rad18 strain (AID 175)
Experimental parameters: S. cerevisiae mlh1 rad18 strain growth inhibition; at 50.0 µM (retest, dose inferred, filed as 5.0); hits give high values
About 79,000 compounds went through this panel and 15% of them were active in at least one assay; those are over-represented in the sample as a whole.
Measured quantity: growth inhibition (%)
Express it in %; write the number only.

Examples with their reported growth inhibition follow.
Give growth inhibition for `C[C@]12CC[C@H]3[C@@H](CCC4=CC(=O)CC[C@@]43C)[C@@H]1CC[C@@H]2C(=O)C=O` 74

Please supply the value of reported growth inhibition for the item `Clc1cc2c(c3ncccc13)OCN(CCc1ccccc1)C2` 10

Give the value of growth inhibition reported for the following: COc1cccc2c1C(=O)c1c(O)c3c(c(O)c1C2=O)C[C@@](O)(/C(C)=N/NC(N)=S)C[C@@H]3OC1CC(N)C(O)C(C)O1 (stereo not given in full) 75

Name the recorded growth inhibition of the compound listed here: `CC1=C(C(=O)Nc2ccc(Cl)c(Cl)c2)C(c2ccco2)C(C(=O)Nc2ccc(Cl)c(Cl)c2)=C(C)N1` 36

***
Input `O=C(Nc1ccccc1)c1ccccc1O` , output reported growth inhibition. 98

###

Test protocol: NCI Yeast Anticancer Drug Screen. Data for the bub3 strain (AID 167)
Experimental parameters: S. cerevisiae bub3 mutant strain, at 50.0 µM, hits give high values
Compounds without any hit were thinned out: in the full panel of roughly 79,000, 15% have a hit.
Consider the reported growth inhibition of an entry and match it to a band in lo = under 20%, mid = from 20% up to 90%, hi = 90% and over

For this compound, which bin applies? `ClC1=C(Cl)C(Cl)(Cl)C(Cl)(Cl)C1(Cl)Cl` hi

Tag the class for `CCCC(=S)N1CCOCC1` lo

Input C=C1CC2(CC(C(C)C)CCC2C)OC1=O (configuration not stated) ; output its category lo

Sort `Nc1ccc(Oc2ccccc2)cc1` into one of the categories. mid

Others:
Would you mind sorting `Nc1ccccc1[S][Sn]([c]1ccccc1)([c]1ccccc1)[c]1ccccc1` into the appropriate category? hi

Hello team, could you let me know which band the following compound falls into: `CCCCCCCCCCCCO` lo

Band for C=CC1(C)CCC2C(=CCC3C(C)(COC4OC(CO)C(O)C(O)C4O)C(O)CCC23C)C1 (configuration not stated) ? hi

Exercise: read the entry `CCCCCCCCCCCCNc1ccccn1` and state which class it falls under. mid

Exam item: assign Cc1ccc2c(c1)C1(SCC(=O)N1c1ccc(Cl)cc1)C(=O)N2 (configuration not stated) to the correct category. mid

Given COC12C=CC(CC1)C1=C2C(=O)c2nc(C)c(C)nc2C1=O (configuration not stated) , name the class its growth inhibition places it in. mid
